Target: ZFP SBS#831 (synthetic)
Sequence (chain, as listed by the source): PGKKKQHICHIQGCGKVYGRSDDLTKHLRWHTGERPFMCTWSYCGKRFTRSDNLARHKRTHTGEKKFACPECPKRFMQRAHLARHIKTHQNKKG
Experiment: EMSA
Conditions: tags: MBP fusion
quantityMeasured: Kd (nM)
Write the value in nM as a bare number.

Q: Please look at this binder and report its Kd: GGAGAGTCGG (dsDNA) DNA 1: GGAGAGTCGG DNA 2: CCGACTCTCC
Result: 700
